study_system: Protein farnesyltransferase (Homo sapiens, UniProt P49354+P49356)
method_summary: Inhibition of mammalian Farnesyltransferase
Type: protein-complex assay
pIC50: −log10 of the molar value.
metric: pIC50

Worked examples follow.
                                item_smiles                              study_system  test_value
0  CSCC[C@H](NC(=O)c1ccc(NCc2cncn2Cc2ccc(-c3ccccc3)cc2)cc1-c1ccccc1)C(=O)O  Protein farnesyltransferase (Homo sapiens, UniProt P49354+P49356)        6.59
1  CC(C)NC(=O)c1ccc(NCc2cncn2Cc2ccc(C#N)cc2)cc1-c1ccccc1  Protein farnesyltransferase (Homo sapiens, UniProt P49354+P49356)        6.42

I = CSCC[C@H](NC(=O)c1ccc(CNCc2c[nH]cn2)cc1-c1ccccc1C)C(=O)O
II = N#CCCNC(=O)c1ccc(NCc2cncn2Cc2ccc(C#N)cc2)cc1-c1ccccc1
*Q* Larger number for pIC50: I , or II ? Response format: the label of the selected entry.
*A* I
(I: 9.00, II: 6.66)

* * *

study_system: Protein farnesyltransferase (Mus musculus, UniProt Q61239+Q8K2I1)
method_summary: Inhibition of mammalian H-Ras processing in NIH 3T3 cells
pIC50: −log10 of the molar value.
metric: pIC50

P = COC(=O)[C@H](CCSC)NC(=O)c1ccc(CNCc2c[nH]cn2)cc1-c1ccccc1C
Q = CSCC[C@H](NC(=O)c1ccc(CNCc2c[nH]cn2)cc1-c1ccccc1C)C(=O)O
*Q* Between P and Q , whose recorded pIC50 is greater? Please indicate the selected item by its label.
*A* P

* * *

Readings of inhibition at 20 µM for the listed molecules
System: Plasmodium falciparum
method_summary: Percent growth inhibition of Plasmodium falciparum 3D7 in erythrocytes at 20 uM
Format: functional
Give a bare numeral; the unit % is implied.

*Q* I am curious: what inhibition at 20 µM value has been reported for `CSCC[C@H](NC(=O)c1ccc(NCc2cncn2Cc2ccc(-c3ccccc3)cc2)cc1-c1ccccc1)C(=O)O` ?
*A* 89.1

*Q* Value lookup for inhibition at 20 µM; key = `CSCC[C@H](NC(=O)c1ccc(NCc2cncn2Cc2ccc(C#N)cc2)cc1-c1ccccc1)C(=O)O`
*A* 86.3

*Q* Consider the molecule shown here: `COC(=O)[C@H](CCSC)NC(=O)c1ccc(CNCc2c[nH]cn2)cc1-c1ccccc1C` What is its recorded inhibition at 20 µM?
*A* 99

*Q* I would be grateful if you could share the reported inhibition at 20 µM for `CSCC[C@H](NC(=O)c1ccc(NCc2cn(Cc3cccc4ccccc34)cn2)cc1-c1ccccc1)C(=O)O` .
*A* 19.4

*Q* // inhibition at 20 µM lookup, key: `CSCC[C@H](NC(=O)c1ccc(CNCc2c[nH]cn2)cc1-c1ccccc1C)C(=O)O`
*A* 0

*Q* Dear colleague, I am looking for the recorded inhibition at 20 µM of the following molecule: `CSCC[C@H](NC(=O)c1ccc(NCc2cncn2CC2CCCCC2)cc1-c1ccccc1)C(=O)O`
*A* 72
